Label condition met when melting point is at or above 100 °C; otherwise label condition not met.

1. COc1cc(OC)c(C(=O)/C=C/c2cc3c(cc2[N+](=O)[O-])OCO3)c(OC)c1 :: condition met
2. Cc1cccc2c(=O)c(=O)c12 :: condition met
3. CCOC(=O)c1cccc(O)c1 :: condition not met
4. NS(=O)(=O)c1ccc(SCCCCO)s1 :: condition not met
5. CCCCC(O)C(C)C (stereo not given) :: condition not met
6. COC(=O)c1cc(Br)ccc1NC(C)=O :: condition met
7. CC12CCC(=O)CC1CCC1C2CCC2(C)C1CCC2(C)O (stereo not given) :: condition met
8. CCOC(=O)/C(C#N)=C/c1ccc(-c2ccc([N+](=O)[O-])cc2)o1 :: condition met
9. CC(=O)c1c(O)ccc2ccccc12 :: condition not met
10. O=C(NNC(=O)c1ccc(Cl)cc1)c1ccc(Cl)cc1 :: condition met

Evaluate C=CC(C)(C)O : melting point at minimum 100 °C?
condition not met

Do the same for C=C1C(=O)C23C(OC)CC4C5(C)CCCC4(COC5)C2C(O)CC1C3O (stereo not given) please
condition met
